Below are MIC values measured for E. coli NDM ? b.

Some compounds with recorded MIC:
                                   compound      result
0  CO/N=C(\C(=O)N[C@@H]1C(=O)N2C(C(=O)O)=C(COC(C)=O)CS[C@H]12)c1csc(N)n1  ≥ 64 µg/mL
1  CO/N=C(\C(=O)N[C@@H]1C(=O)N2C(C(=O)O)=C(COC(N)=O)CS[C@H]12)c1ccco1  ≥ 64 µg/mL
2  CO/N=C(\C(=O)N[C@@H]1C(=O)N2C(C(=O)[O-])=C(C[N+]3(C)CCCC3)CS[C@H]12)c1csc(N)n1  ≥ 64 µg/mL
3  C[C@@H](O)[C@H]1C(=O)N2C(C(=O)O)=C(S[C@@H]3CN[C@H](C(=O)N(C)C)C3)[C@H](C)[C@H]12     8 µg/mL
4  CO/N=C(\C(=O)N[C@@H]1C(=O)N2C(C(=O)OC(C)OC(C)=O)=C(COC(N)=O)CS[C@H]12)c1ccco1 (stereo partly shown)  ≥ 64 µg/mL

Your task in this section: give MIC for each listed record.
1. CC(C)(O/N=C(\C(=O)N[C@@H]1C(=O)N2C(C(=O)[O-])=C(C[n+]3ccccc3)CS[C@H]12)c1csc(N)n1)C(=O)O
2. O=C1CN(/N=C/c2ccc([N+](=O)[O-])o2)C(=O)N1

Completion:
1: ≥ 64 µg/mL; 2: 64 µg/mL

Hey, just so you know, these numbers are from patent US20240165196A1.
